Readings of GI50 for the listed compounds
test system: A549; assay: Antiproliferative activity against human A549 cells after 48 hrs by sulforhodamine B assay; type: functional; conditions: A549, 48 h

| Compound structure | Reading qualifier | GI50 / µM |
| --- | --- | --- |
| CC1=CC(=O)O[C@H]1C[C@@H]1[C@@H](C)C(=O)C[C@@H]2C(C)(C)[C@@H](O)CC[C@@]12C | > | 100 |
| C=C1[C@@H](OC(C)=O)C[C@@H]2C(C)(C)[C@@H](O)CC[C@@]2(C)[C@@H]1C[C@H]1OC(=O)C=C1C | = | 23 |
| CC1=CC(=O)O[C@@H]1C[C@@H]1[C@@H](C)C(=O)C[C@@H]2C(C)(C)[C@@H](O)CC[C@@]12C | > | 100 |
| C=C1CC[C@@H]2C(C)(C)[C@H](O)CC[C@@]2(C)[C@@H]1C[C@H]1OC(=O)C=C1C | = | 59 |

Provenance of the data: ChEMBL document CHEMBL4425092
